Each entry below lists one item and its recorded ETOH value.
system: rumen inoculum; test: Rumen in vitro model; parameters: species or system steer; details: 50 ppm
MEASURED_ATTRIBUTE: ETOH (% OF CONTROL)

| MOLECULE | UNITS | MEASURED_VALUE |
| --- | --- | --- |
| CN[C@H](CC(C)C)C(=O)N[C@H]1C(=O)N[C@@H](CC(N)=O)C(=O)N[C@H]2C(=O)N[C@H]3C(=O)N[C@H](C(=O)N[C@H](C(=O)O)c4cc(O)cc(O)c4-c4cc3ccc4O)[C@H](O)c3ccc(c(Cl)c3)Oc3cc2cc(c3O[C@@H]2O[C@H](CO)[C@@H](O)[C@H](O)[C@H]2O[C@H]2C[C@](C)(N)[C@H](O)[C@H](C)O2)Oc2ccc(cc2Cl)[C@H]1O [Vancomycin] | % OF CONTROL | 0 |
| CN[C@H]1C(=O)N[C@H]2C(=O)N[C@H](C(=O)N[C@H]3C(=O)N[C@H]4C(=O)N[C@H](C(=O)N[C@H](C(=O)O)c5cc(O)cc(O[C@H]6O[C@H](CO)[C@@H](O)[C@H](O)[C@@H]6O)c5-c5cc4ccc5O)[C@H](O)c4cc(Cl)c(c(Cl)c4)Oc4cc3cc(c4O[C@@H]3O[C@H](C(=O)O)[C@@H](O)[C@H](O)[C@H]3NC(=O)CCCCCCCC(C)C)Oc3ccc(cc3Cl)[C@H]2O)c2cc(cc(O)c2Cl)Oc2cc1ccc2O [AAD 216B] | % OF CONTROL | 0 |
| CC[C@@]1([C@H]2O[C@H]([C@H]3O[C@@](O)(CO)[C@H](C)C[C@@H]3C)C[C@H]2C)CC[C@H]([C@@]2(C)CC[C@]3(C[C@H](O)[C@@H](C)[C@@H]([C@H](C)[C@H](OC)[C@@H](C)C(=O)O)O3)O2)O1 [Monensin Sodium] | % OF CONTROL | 0 |
| CN[C@H]1C(=O)N[C@H]2C(=O)N[C@H](C(=O)N[C@H]3C(=O)N[C@H]4C(=O)N[C@H](C(=O)N[C@H](C(=O)O)c5cc(O)cc(O[C@H]6O[C@H](CO)[C@@H](O)[C@H](O)[C@@H]6O)c5-c5cc4ccc5O)[C@H](O)c4cc(Cl)c(c(Cl)c4)Oc4cc3cc(c4O[C@@H]3O[C@H](C(=O)O)[C@@H](O)[C@H](O)[C@H]3NC(=O)CCCCCCCCC(C)C)Oc3ccc(cc3Cl)[C@H]2O)c2cc(cc(O)c2Cl)Oc2cc1ccc2O | % OF CONTROL | 0 |
| CCCCCCCCCC(=O)N[C@H]1[C@H](Oc2c3cc4cc2Oc2c(Cl)cc(cc2Cl)[C@@H](O)[C@@H]2NC(=O)[C@H](NC(=O)[C@@H]4NC(=O)[C@H]4NC(=O)[C@H](NC(=O)[C@H](NC)c5ccc(O)c(c5)Oc5cc(O)c(Cl)c4c5)[C@H](O)c4ccc(c(Cl)c4)O3)c3ccc(O)c(c3)-c3c(O[C@H]4O[C@H](CO)[C@@H](O)[C@H](O)[C@@H]4O)cc(O)cc3[C@@H](C(=O)O)NC2=O)O[C@H](C(=O)O)[C@@H](O)[C@@H]1O [AAD 216A] | % OF CONTROL | 0 |
